# TARGET_OR_SYSTEM: Env of HIV-1 strain Du172.17 (HIV-1)
# EXPERIMENTAL_PROTOCOL: cell-based or functional assay
Quick reference: neutralization IC50 of the listed items.
ENDPOINT: neutralization IC50

binder="γ44κ11 (antibody, V domains shown) VH: QIHLVQSGTEVKKPGSSVTVSCKAYEVNTFGLYAVNWVRQAPGQSLEYIGQIWRWKSSASHHFRGRVLISAVDLTGSSPPISSLEIKNVTSDDTAVYFCTTTSTHDKWSGLHHDGVMAFSSWGQGTLISVSA VL: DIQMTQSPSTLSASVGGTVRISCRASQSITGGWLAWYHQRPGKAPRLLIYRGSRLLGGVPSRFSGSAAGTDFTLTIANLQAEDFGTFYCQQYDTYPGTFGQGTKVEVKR" endpoint="neutralization IC50" assay_value="> 15 µg/mL"
binder="γ15κ61 (antibody, V domains shown) VH: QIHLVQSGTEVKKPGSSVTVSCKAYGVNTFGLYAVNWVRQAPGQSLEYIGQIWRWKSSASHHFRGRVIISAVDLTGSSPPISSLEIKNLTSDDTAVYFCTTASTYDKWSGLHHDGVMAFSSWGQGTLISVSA VL: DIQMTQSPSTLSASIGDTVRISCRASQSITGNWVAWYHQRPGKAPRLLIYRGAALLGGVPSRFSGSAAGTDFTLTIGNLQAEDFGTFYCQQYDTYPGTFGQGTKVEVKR" endpoint="neutralization IC50" assay_value="> 15 µg/mL"
binder="γ22κ3 (antibody, V domains shown) VH: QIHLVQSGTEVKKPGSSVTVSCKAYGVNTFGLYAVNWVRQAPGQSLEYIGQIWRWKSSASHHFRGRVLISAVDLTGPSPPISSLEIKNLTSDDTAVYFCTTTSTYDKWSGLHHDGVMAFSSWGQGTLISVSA VL: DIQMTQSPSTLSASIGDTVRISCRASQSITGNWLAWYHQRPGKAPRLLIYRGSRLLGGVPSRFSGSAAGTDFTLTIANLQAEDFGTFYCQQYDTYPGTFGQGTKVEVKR" endpoint="neutralization IC50" assay_value="> 15 µg/mL"
